assay protocol: log P by reversed-phase HPLC (EEC Directive 79/831 Annex V.A8)
Format: physicochemical
recorded conditions: acidic range, pH 2.7, 0.1% aqueous formic acid/acetonitrile
Text: NMR data and log P values: log P (HCOOH)=log P[a] log P (neutral)=log P[b] ^[a] […] Called log P (HCOOH) in the table. ^[b] […] Called log P (neutral) in the table.
Entries and their logP [a] = log P (HCOOH) values follow.

Examples from the recorded data:
Ask: Endpoint output: logP [a] = log P (HCOOH) of FC(F)(F)c1ccc2ncc(-c3ccncc3)nc2c1 . Value?
Result: 2.13

Ask: Lookup Clc1ccc2nc(-c3cccnc3)cnc2c1
Result: 2.01

Ask: Lookup Clc1cc2ncc(-c3ccncc3)nc2cc1Cl
Result: 2.53

---
Ask: Endpoint output: logP [a] = log P (HCOOH) of FC1(F)Oc2cc3ncc(-c4ccncc4)nc3cc2O1 . Value?
Result: 1.98

Ask: Lookup Cc1ccccc1-c1cnc2ccc(C(F)(F)F)cc2n1
Result: 4.47

Ask: Lookup Cn1nccc1-c1cnc2cc(C(F)(F)F)ccc2n1
Result: 3.07

Ask: Lookup FC(F)(F)c1ccc2nc(-c3cccnc3)cnc2c1
Result: 2.46

Ask: Lookup CCSc1ccccc1-c1nc2cc3c(cc2nc1-c1ccc(Cl)cc1)OC(F)(F)O3
Result: 6.23

Ask: Lookup FC(F)(F)c1ccc2nc(-c3ccccn3)cnc2c1
Result: 3.72

Ask: Lookup Cc1cnccc1-c1nc2ccc(C(F)(F)F)cc2nc1C
Result: 2.15

Ask: Lookup Cc1cnccc1-c1nc2ccc(C(F)(F)F)cc2nc1-c1ccc(Cl)cc1
Result: 4.03

Ask: Lookup FC(F)(F)c1ccc2nc(-c3ccc(Cl)cc3)cnc2c1
Result: 4.99

Ask: Lookup FC(F)(F)c1ccc2nc(-c3ccncc3)cnc2c1
Result: 2.17

Ask: Lookup FC(F)(F)c1ccc2nc(-c3ccncc3)c(-c3ccncc3)nc2c1
Result: 2.06

====

assay protocol: log P by reversed-phase HPLC (EEC Directive 79/831 Annex V.A8)
Format: physicochemical
recorded conditions: pH 7.8
Tick YES if logP [b] = log P (neutral) is 3 or greater. Tick NO if logP [b] = log P (neutral) is less than 3.

The examples below pair each entry with its known result.
Ask: Can CCSc1ccccc1-c1cnc2cc(C#N)ccc2n1 be said to have logP [b] = log P (neutral) at or above 3?
Result: YES

Ask: Lookup CC[S+]([O-])c1ccccc1-c1cnc2cc(C(F)(F)F)ccc2n1 (centres unmarked)
Result: NO

Ask: Lookup CCSc1ccccc1-c1cnc2ccc(S(C)(=O)=O)cc2n1
Result: NO

Ask: Lookup CS(=O)(=O)c1ccccc1-c1cnc2cc(Cl)ccc2n1
Result: NO

Ask: Lookup CCSc1ccccc1-c1cnc2cc(C(F)(F)F)ccc2n1
Result: YES

---
Ask: Can CSc1ccccc1-c1cnc2cc(C(F)(F)F)ccc2n1 be said to have logP [b] = log P (neutral) at or above 3?
Result: YES

Ask: Lookup CC[S+]([O-])c1ccccc1-c1cnc2cc(Cl)ccc2n1 (centres unmarked)
Result: NO

Ask: Lookup Cc1ccc(-c2c[n+]([O-])c3ccc(C(F)(F)F)cc3n2)c(F)c1
Result: YES

====

Entries and their logP [b] = log P (neutral) values follow.
assay protocol: log P by reversed-phase HPLC (EEC Directive 79/831 Annex V.A8)
Assay type: physicochemical
recorded conditions: neutral range, pH 7.8, aqueous ammonium hydrogencarbonate/acetonitrile

Examples from the recorded data:
Ask: Endpoint output: logP [b] = log P (neutral) of FC(F)(F)c1ccc2ncc(-c3ccncc3)nc2c1 . Value?
Result: 2.75

Ask: Lookup Cc1ccccc1-c1cnc2ccc(C(F)(F)F)cc2n1
Result: 4.41

Ask: Lookup Clc1ccc2nc(-c3cccnc3)cnc2c1
Result: 2.43

Ask: Lookup Cn1nccc1-c1cnc2cc(C(F)(F)F)ccc2n1
Result: 3.05

Ask: Lookup FC(F)(F)c1ccc2nc(-c3ccccn3)cnc2c1
Result: 3.75

Ask: Lookup Cn1nccc1-c1cnc2ccc(C(F)(F)F)cc2n1
Result: 3.00

---
Ask: Endpoint output: logP [b] = log P (neutral) of FC(F)(F)c1ccc2nc(-c3ccncc3)cnc2c1 . Value?
Result: 2.75

====

assay protocol: log P by reversed-phase HPLC (EEC Directive 79/831 Annex V.A8)
Type: physicochemical
recorded conditions: pH 2.7
Tick Satisfied if logP [a] = log P (HCOOH) is 2 or greater. Tick Not satisfied if logP [a] = log P (HCOOH) is less than 2.

Ask: Can COc1cnccc1-c1cnc2ccc(C(F)(F)F)cc2n1 be said to have logP [a] = log P (HCOOH) at or above 2?
Result: Satisfied

---
Ask: Can Cc1cnccc1-c1cnc2cc(C#N)ccc2n1 be said to have logP [a] = log P (HCOOH) at or above 2?
Result: Not satisfied

Ask: Lookup Cc1cnccc1-c1cnc2cc(Cl)ccc2n1
Result: Not satisfied

Ask: Lookup FC1(F)Oc2cc3ncc(-c4ccncc4Cl)nc3cc2O1
Result: Satisfied

Ask: Lookup FC(F)(F)c1ccc2nc(-c3cncnc3)cnc2c1
Result: Satisfied

====

assay protocol: log P by reversed-phase HPLC (EEC Directive 79/831 Annex V.A8)
Type: physicochemical
recorded conditions: reversed-phase C18 HPLC column; acidic range, pH 2.7, 0.1% aqueous formic acid/acetonitrile; read-out: logP [a] = log P (HCOOH)
The threshold is 4. Values of chromatographic logP beneath it are tagged 1.0; values meeting or exceeding it are tagged 0.0.

The examples below pair each entry with its known result.
Ask: chromatographic logP strictly < 4 for this compound? O=c1[nH]c2cc3c(cc2nc1-c1ccc(Cl)cc1)OC(F)(F)O3 [VIb-01]
Result: 1.0

Ask: Lookup FC1(F)Oc2cc3nc(Cl)c(-c4ccc(Cl)cc4)nc3cc2O1 [Example I-4]
Result: 0.0

---
Ask: chromatographic logP strictly < 4 for this compound? FC1(F)Oc2cc3ncc(-c4ccc(C(F)(F)F)cc4)nc3cc2O1 [Example I-5]
Result: 0.0

Ask: Lookup O=c1cnc2cc3c(cc2[nH]1)OC(F)(F)O3 [VIa-03]
Result: 1.0

Ask: Lookup CCSc1ccccc1-c1nc2ccc(C(F)(F)F)cc2nc1Cl [Example I-3]
Result: 0.0

Ask: Lookup CCc1cnccc1-c1cnc2cc3c(cc2n1)OC(F)(F)O3 [Example I-1]
Result: 1.0

Ask: Lookup Cc1cnccc1-c1cnc2cc(C(F)(F)F)ccc2n1 [Example I-2]
Result: 1.0

Ask: Lookup [O-][n+]1cc(-c2ccc(C(F)(F)F)cc2)nc2cc3c(cc21)OC(F)(F)O3 [Example I-6]
Result: 0.0

====

assay protocol: log P by reversed-phase HPLC (EEC Directive 79/831 Annex V.A8)
Format: physicochemical
recorded conditions: pH 7.8
readout: logP [b] = log P (neutral)
// return a plain number; no unit text

Examples from the recorded data:
Ask: Endpoint output: logP [b] = log P (neutral) of CCSc1ccccc1-c1cnc2cc(Cl)c(Cl)cc2n1 [Example I-42] . Value?
Result: 5.48

Ask: Lookup Cc1ccsc1-c1cnc2ccc(C(F)(F)F)cc2n1 [Example I-43]
Result: 4.66

Ask: Lookup Cc1cnccc1-c1cnc2ccc(C(F)(F)F)cc2n1 [Example I-30]
Result: 2.89

Ask: Lookup Cc1cnccc1-c1cnc2cc3c(cc2n1)OC(F)(F)O3 [Example I-32]
Result: 2.85

Ask: Lookup Cc1cnccc1-c1cnc2cc(Cl)c(Cl)cc2n1 [Example I-41]
Result: 3.29

---
Ask: Endpoint output: logP [b] = log P (neutral) of Cc1cnccc1-c1cnc2cc(C#N)ccc2n1 [Example I-56] . Value?
Result: 1.81

Ask: Lookup CCS(=O)(=O)c1ccccc1-c1cnc2cc(Cl)ccc2n1 [Example I-29]
Result: 2.82

Ask: Lookup Cc1cnccc1-c1cnc2cc(Cl)ccc2n1 [Example I-17]
Result: 2.58

Ask: Lookup CCc1cnccc1-c1cnc2cc(C(F)(F)F)ccc2n1 [Example I-26]
Result: 3.28

Ask: Lookup Cc1cnccc1-c1cnc2ccc(S(C)(=O)=O)cc2n1 [Example I-13]
Result: 1.34

====

assay protocol: log P by reversed-phase HPLC (EEC Directive 79/831 Annex V.A8)
Type: physicochemical
recorded conditions: acidic range, pH 2.7, 0.1% aqueous formic acid/acetonitrile
Tick Fulfilled if logP [a] = log P (HCOOH) is 4 or greater. Tick Not fulfilled if logP [a] = log P (HCOOH) is less than 4.

Ask: Can Cc1c[n+]([O-])ccc1-c1c[n+]([O-])c2cc(C(F)(F)F)ccc2n1 [Example I-55] be said to have logP [a] = log P (HCOOH) at or above 4?
Result: Not fulfilled

Ask: Lookup Clc1ccc2nc(-c3ccnc(Cl)c3)cnc2c1 [Example I-69]
Result: Not fulfilled

Ask: Lookup N#Cc1ccc2nc(-c3ccncc3)cnc2c1 [Example I-61]
Result: Not fulfilled

---
Ask: Can FC(F)(F)c1ccc2nc(Cl)c(-c3ccc(Cl)cc3)nc2c1 [Example I-53] be said to have logP [a] = log P (HCOOH) at or above 4?
Result: Fulfilled

Ask: Lookup Cc1ccccc1-c1cnc2cc(C(F)(F)F)ccc2n1 [Example I-46]
Result: Fulfilled

Ask: Lookup Cc1nc2cc(C(F)(F)F)ccc2nc1-c1cccnc1 [Example I-60]
Result: Not fulfilled

Ask: Lookup Cn1nccc1-c1cnc2ccc(C(F)(F)F)cc2n1 [Example I-50]
Result: Not fulfilled
